endpoint: pIC50
Scale: negative log10 of molar concentration, which is what pIC50 denotes.

Param item: Oc1cc(O)c2c(c1)O[C@H](c1ccc(O)c(O)c1)[C@H](O)C2 [(-)-EPICATECHIN] ; param system: DNA polymerase beta (Rattus norvegicus); output pIC50: 4.73

Param item: `C=C(COC(=O)c1ccc(O)cc1)[C@@H]1CC[C@]2(C)CC[C@]3(C)[C@H](C[C@@H](O)[C@@H]4[C@@]5(C)CCC(=O)C(C)(C)[C@@H]5CC[C@]43C)[C@@H]12` ; param system: DNA polymerase beta (Rattus norvegicus); output pIC50: 4.20
